# Test system: MCF10A
# Assay summary: 5+ nucleoli phenotype percent effect (relative to siNT 0% and siKIF11 100%); higher = more cells with five or more nucleoli
# Test conditions: 20 nM; 72 h
Catalogue of 5+ nucleoli phenotype percent effect readings, one per entry.
# number only, unit % dropped from output

// solved cases for 5+ nucleoli phenotype percent effect follow
{"Record sequence": "UCACUCCUCUCCUCCCGUCUU [hsa-miR-483-3p]", "Result": -26.9}
{"Record sequence": "CGCCUCUUCAGCGCUGUCUUCC [hsa-miR-2682-3p]", "Result": 24}
{"Record sequence": "GGGGGGGCAGGAGGGGCUCAGGG [hsa-miR-328-5p]", "Result": 33.9}

Query (sequence): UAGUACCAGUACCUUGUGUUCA [hsa-miR-624-5p] ; field requested: 5+ nucleoli phenotype percent effect
-9.19

Same again, this time with AGGUUGUCCGUGGUGAGUUCGCA [hsa-miR-323b-5p]
57.7

Same again, this time with UAUAGGGAUUGGAGCCGUGGCG [hsa-miR-135a-3p]
4.73

Same again, this time with AGAGGAUACCCUUUGUAUGUU [hsa-miR-1185-5p]
5.5

Same again, this time with UUUGGCACUAGCACAUUUUUGCU [hsa-miR-96-5p]
16.6

----------
# System: MCF10A
# Assay summary: 5+ nucleoli phenotype percent effect (relative to siNT 0% and siKIF11 100%); higher = more cells with five or more nucleoli
# Test conditions: 20 nM; 72 h
Catalogue of 5+ nucleoli phenotype percent effect readings, one per entry.
# number only, unit % dropped from output

{"Record sequence": "CAACGGAAUCCCAAAAGCAGCUG [hsa-miR-191-5p]", "Measured on": "MCF10A", "5+ nucleoli phenotype percent effect [%]": 2.25}
{"Record sequence": "ACCUGAGGUUGUGCAUUUCUAA [hsa-miR-544b]", "Measured on": "MCF10A", "5+ nucleoli phenotype percent effect [%]": -17.6}
{"Record sequence": "AUUGUAGAACCUAAGAUUGGCC [hsa-miR-3674]", "Measured on": "MCF10A", "5+ nucleoli phenotype percent effect [%]": -29.6}
{"Record sequence": "CUAUACAACUUACUACUUUCCC [hsa-miR-98-3p]", "Measured on": "MCF10A", "5+ nucleoli phenotype percent effect [%]": 45.5}
{"Record sequence": "CGGGGCAGCUCAGUACAGGAU [hsa-miR-486-3p]", "Measured on": "MCF10A", "5+ nucleoli phenotype percent effect [%]": -5.42}
{"Record sequence": "UGCUUAACCUUGCCCUCGAAA [hsa-miR-4804-3p]", "Measured on": "MCF10A", "5+ nucleoli phenotype percent effect [%]": -30.7}
{"Record sequence": "UGUCUUUCUUCUCUCCCUUGCAG [hsa-miR-6830-3p]", "Measured on": "MCF10A", "5+ nucleoli phenotype percent effect [%]": -30.3}
{"Record sequence": "UUGCAUGUCAGAUUGUAAUUCCC [hsa-miR-4666b]", "Measured on": "MCF10A", "5+ nucleoli phenotype percent effect [%]": -10.4}
{"Record sequence": "UGAGGGAGUGGAUUGUAUG [hsa-miR-6130]", "Measured on": "MCF10A", "5+ nucleoli phenotype percent effect [%]": -15.2}
{"Record sequence": "CUGUAAUAUAAAUUUAAUUUAUU [hsa-miR-2054]", "Measured on": "MCF10A", "5+ nucleoli phenotype percent effect [%]": 28}

With those in mind, consider the next sequence.
Query (sequence): AGACUGACCUUCAACCCCACAG [hsa-miR-6855-3p] ; field requested: 5+ nucleoli phenotype percent effect
-20.8
